# Target or system: T1, human FLT3 protein (human, UniProt P36888 27-541, limits assumed)
# T1 construct: protein coated in the screening ELISA; also called ELISA FLT3
# Assay details: colorimetric ELISA, signal over control wells lacking FLT3
# Text: Llamas were immunized with purified FLT3 protein expressed in Expi293 cells. A phage display library for expression of heavy variable antibody domains was constructed from circulating B cells isolated from the immunized llamas (See van der Linden, de Geus, Stok, Bos, van Wassenaar, Verrips, and Frenken. 2000. J Immunol Methods 240:185-195). […]
Observed property: log10 of FLT3/control (log10 of the value in ratio)
Note the log scale: values are log10 of FLT3/control expressed in ratio.

Solved entries (count: 5):
binder="FLL134 (VHH, llama anti-FLT3 variable domain; E. coli periplasmic extract) VHH: QVQLQESGGGLVQPGGSLRLSCAASGGTFSSYATGWFRQVPGKEREFIAGISRNSGRTYAESVKGRFTISRDNAKNTVYLQMNTLRPDDTAVYYCAAARYFTRDAIYTSGDDYDYWGQGTQVTASS" observed_property="log10 of FLT3/control" recorded_result=1.18
binder="FLL34 (VHH, llama anti-FLT3 variable domain; E. coli periplasmic extract) VHH: QVQLQESGGGLVQAGGSLRLSCAASGRTFSSYALGWFRQAPGKEREFVAAISWSGGNTYYADSVKGRFTISRDDAKNTVYLQMDSLKPEDTAVYYCAAGGSTRVVVTTTPVVKYWGQGTQVTVSS" observed_property="log10 of FLT3/control" recorded_result=1.59
binder="FLL26 (VHH, llama anti-FLT3 variable domain; E. coli periplasmic extract) VHH: QVQLQESGGGLVQAGGSLRLSCAASGRTFTTYTVAWFRQAPGKEREFLVASIPTGSNTAYAESVKGRFTISRGNAKNTVYLQMNSLKPEDTAMYYCAARTYFGSSRGYDYWGQGTQVTVSS" observed_property="log10 of FLT3/control" recorded_result=0.60
binder="FLL21 (VHH, llama anti-FLT3 variable domain; E. coli periplasmic extract) VHH: QVQLQESGGGLVQPGGSLTLSCAASGSTFSRNYIDWYRQAPGKQREWVAQITSGGNTHYEPSLKGRFTISRDNAKNTAYLQMNSLKPEDTAVYYCRILDYWGQGTQVTVSS" observed_property="log10 of FLT3/control" recorded_result=1.30
binder="FLL160 (VHH, llama anti-FLT3 variable domain; E. coli periplasmic extract) VHH: QVQLQESGGGLVQAGDSLRLSCATSGRTFNLYRVGWFRQAPGKEREFVARITWSADITQYADSVKGRFTISRDNAKNTVYLQMNSLKPEDTAIYYCATTLRKSSGIYHVDDYDDWGQGTQVTVSS" observed_property="log10 of FLT3/control" recorded_result=0.95

Using the record for FLL94 (VHH, llama anti-FLT3 variable domain; E. coli periplasmic extract) VHH: QVQLQESGGGLVQAGGSLRLSCAVSGRTFSGFGTGWFRQAPEKEREFVAAISWDGGRTHYADSVKGRFTISRDNAKNTVYLQMNSLKPEDTAIYYCAGQVARAYDTRWYSRGDYWGQGTQVTVSS , report its log10 of FLT3/control.
0.70

Given the binder FLL4 (VHH, llama anti-FLT3 variable domain; E. coli periplasmic extract) VHH: QVQLQESGGGLVQAGGSLRLSCAASERTFSSYTMGWFRQAPGKEREFVAAMSWSGGSTYYADSVKGRFTISRDNAKNTVYLQMDSLKPEDTAVYYCAAGGSTRVVVTTTPVVKYWGQGTQVTVSS , what is its reported log10 of FLT3/control?
1.63

What does the data say about its log10 of FLT3/control? Entry: FLL822 (VHH, llama anti-FLT3 variable domain; E. coli periplasmic extract) VHH: QVQLQESGGGSVQAGGSLRLSCTASGRTFTDYTMGWFRQAPGKEREFMLGISSNGYRRYYTGSMKDRFTISRDNVKKTVYLQMNDLKPEDTAVYYCAASEDHGAPRYDYWGQGTQVTVSS
1.23

Record request: log10 of FLT3/control value, item FLL190 (VHH, llama anti-FLT3 variable domain; E. coli periplasmic extract) VHH: QVQLQESGGGLVQAGGSLTLSCTASGSTFSINHFSWYRQAPGKQRELVAFISSDGVSIDVESVKGRFTISGDNDKNTAYLQMNGLKPEDTAVYYCYYRGFWGQGTQVTVSS
1.63

Requested read-out: log10 of FLT3/control. Entry: FLL76 (VHH, llama anti-FLT3 variable domain; E. coli periplasmic extract) VHH: QVQLQESGGGLVQAGGSLRLSCAASGGAFSSYVMGWFRQAPGKEREFVAAVISWSGRITDYADSVKGRFSISRDNAKSTVYLQMNNLKPEDTAVYYCAAKTGMYIDLRTSTFDYWGQGTQVTVSS
0.70

// lookup log10 of FLT3/control for FLL122 (VHH, llama anti-FLT3 variable domain; E. coli periplasmic extract) VHH: QVQLQESGGGLVQAGGSLMVSCAASGGTWSSYATGWFRQVPGKERELIAGISRSGGRTYYAESVKGRFTISRDNAKNTVYLQMNTLKPDDTAVYYCAAARYFTSSVVYTSGNDYDYWGQGTQVTVSS
1.41
